Task for the reader: assign each of the following molecules its reported cytotoxicity at 10 µM.
Test: Toxicity liver stage against HepG2, at 10uM
Assay type: cell-based
Design: test concentration 10 uM, cell line HepG2-A16-CD81EGFP
Conditions: human, HepG2-A16-CD81EGFP cells; read-out: INHIBITION
Reply with just the number (in %).

Query string: Please give the measured cytotoxicity at 10 µM for this molecule: O=C1CC[C@H](C(=O)N(CCc2ccccc2)C2CCOC2)N1 (stereo partly drawn)
Result string: 1.15

Query string: Please give the measured cytotoxicity at 10 µM for this molecule: CCNC(=O)NC(=O)CSC(C)c1c(F)cccc1F (stereo not drawn)
Result string: 20.6

Query string: Please give the measured cytotoxicity at 10 µM for this molecule: `COCc1ccc(CN2CCC(O)(Cn3ccc4ncccc43)CC2)o1`
Result string: 4.45

Query string: Please give the measured cytotoxicity at 10 µM for this molecule: `Cc1ccc(NC(=O)NCCn2cnc(C)c(C)c2=O)cc1F`
Result string: 3.22

Query string: Please give the measured cytotoxicity at 10 µM for this molecule: `CC(=O)Nc1nc(C(=O)Nc2ccc(N3CCCCC3)nc2)cs1`
Result string: 9.46

Query string: Please give the measured cytotoxicity at 10 µM for this molecule: CC(NC(=O)NCCc1ccc(Cl)s1)c1ccccn1 (stereo not drawn)
Result string: -3.07

Query string: Please give the measured cytotoxicity at 10 µM for this molecule: `CN1CCCN(C(=O)c2cc3c(s2)CCN3C(=O)c2ccccc2)CC1`
Result string: 1.05

Query string: Please give the measured cytotoxicity at 10 µM for this molecule: `c1cncc(CN2CCc3ncnc(C4CC4)c3CC2)c1`
Result string: -129

Query string: Please give the measured cytotoxicity at 10 µM for this molecule: Cc1nn(C)c(N2CCOCC2)c1CNCC1CCN(C2CC2)C1 (stereo not drawn)
Result string: -3.32

Query string: Please give the measured cytotoxicity at 10 µM for this molecule: Cc1ccccc1C(CNc1ncnc2c1CCNCC2)N(C)C (stereo not drawn)
Result string: 21.5

Query string: Please give the measured cytotoxicity at 10 µM for this molecule: `CC(=O)N[C@@H]1CN(Cc2ccccc2C#N)C[C@H]1c1ccc(C)cc1`
Result string: -4.27

Query string: Please give the measured cytotoxicity at 10 µM for this molecule: `Cc1ccc(C(=O)N2CCN(Cc3ccc(C#N)cc3)CC2)n1C`
Result string: -9.65

Query string: Please give the measured cytotoxicity at 10 µM for this molecule: `COCCn1ccc2c(C(=O)O)cccc21`
Result string: -3.37

Query string: Please give the measured cytotoxicity at 10 µM for this molecule: `Cc1nc(C(=O)N2C[C@@H]3CN(S(C)(=O)=O)CCO[C@@H]3C2)cs1`
Result string: 1.98

Query string: Please give the measured cytotoxicity at 10 µM for this molecule: CCCn1ccnc1CN1CCN(C2CCOCC2)CC(C(N)=O)C1 (stereo not drawn)
Result string: -24.4

Query string: Please give the measured cytotoxicity at 10 µM for this molecule: CC(C)c1ccc(CNC(C)c2ccc(S(C)(=O)=O)cc2)cc1 (stereo not drawn)
Result string: 13.9

Query string: Please give the measured cytotoxicity at 10 µM for this molecule: `CC(C)c1noc(CCNC(=O)N2CCN(c3cccs3)CC2)n1`
Result string: -5.37

Query string: Please give the measured cytotoxicity at 10 µM for this molecule: Cc1ccc(NC(=O)N2CCOC(C)(c3cnn(C)c3)C2)c(C)c1 (stereo not drawn)
Result string: 6.05

====

Task for the reader: assign each of the following compounds its reported cytotoxicity at 10 µM.
Test: Toxicity liver stage against HepG2, at 10uM
Assay type: cell-based
Parameters: test concentration 10 uM, cell line HepG2-A16-CD81EGFP
Conditions: human, HepG2-A16-CD81EGFP cells; read-out: INHIBITION
Reply with just the number (in %).

Query string: Please give the measured cytotoxicity at 10 µM for this compound: `Cn1nc(Cn2cccc2)c2c1CN(Cc1ccoc1)C2`
Result string: 2.96

Query string: Please give the measured cytotoxicity at 10 µM for this compound: `Cc1ccc(C)c(OCC(=O)NC2CCN(c3ccccn3)CC2)c1`
Result string: -3.42

Query string: Please give the measured cytotoxicity at 10 µM for this compound: `Cc1ccc(C(=O)N2CCC(n3cc(CO)nn3)CC2)cn1`
Result string: -1.72

Query string: Please give the measured cytotoxicity at 10 µM for this compound: `Cc1[nH]ccc1C(=O)N1CCC2(CC1)c1nc[nH]c1CCN2CC(C)C`
Result string: 7.31

Query string: Please give the measured cytotoxicity at 10 µM for this compound: `CC(=O)N1CCCn2nc(CNS(=O)(=O)c3cc(C)cs3)cc2C1`
Result string: -9.58

Query string: Please give the measured cytotoxicity at 10 µM for this compound: c1coc(-c2nc(CN3CCCC(Cn4cncn4)C3)cs2)c1 (centres undefined)
Result string: -12

Query string: Please give the measured cytotoxicity at 10 µM for this compound: `CN(Cc1noc2c1CCCC2)C(=O)Nc1cncc(F)c1`
Result string: 2.26

Query string: Please give the measured cytotoxicity at 10 µM for this compound: `O=C(c1cnc2c(cnn2C2CCCC2)c1)N1CCN(CCO)CC1`
Result string: -17.2

Query string: Please give the measured cytotoxicity at 10 µM for this compound: `COC(=O)c1ccc(C(=O)N2CCc3c(ncn3C3CC3)C2)cc1`
Result string: -3.34

====

Test: Toxicity liver stage against HepG2, at 10uM
Format: cell-based
Set-up: test concentration 10 uM, cell line HepG2-A16-CD81EGFP
Settings: human, HepG2-A16-CD81EGFP cells; read-out: INHIBITION
Task for the reader: assign each of the following compounds its reported cytotoxicity at 10 µM.
Reply with just the number (in %).

Query string: Please give the measured cytotoxicity at 10 µM for this compound: CS(=O)(=O)c1cncnc1C1CCCNC1 (configuration not stated)
Result string: -8.33

Query string: Please give the measured cytotoxicity at 10 µM for this compound: `CC(C)Cc1noc(CN2CCN(CCO)CC2)n1`
Result string: -1.22

Query string: Please give the measured cytotoxicity at 10 µM for this compound: CC(C(=O)Nc1ccccc1F)S(C)(=O)=O (configuration not stated)
Result string: -5.27

Query string: Please give the measured cytotoxicity at 10 µM for this compound: `CC(C)c1cccc(CSc2nnc(CN3CCCC3=O)o2)n1`
Result string: 3.59

Query string: Please give the measured cytotoxicity at 10 µM for this compound: `c1ccc2nc(N3CCCC3)c(NCc3nnc4n3CCC4)nc2c1`
Result string: 6.9

Query string: Please give the measured cytotoxicity at 10 µM for this compound: `c1cnnc(N[C@@H]2CC[C@@H]3CN(Cc4ccc5[nH]ccc5c4)C[C@@H]32)c1`
Result string: -7.81

Query string: Please give the measured cytotoxicity at 10 µM for this compound: `Cc1cc(CNC2(c3ccccc3)CCCCC2)no1`
Result string: 2.94

Query string: Please give the measured cytotoxicity at 10 µM for this compound: `CCCS(=O)(=O)NC1CCN(c2cccc(F)c2C#N)CC1`
Result string: -5.6

Query string: Please give the measured cytotoxicity at 10 µM for this compound: `CCc1ccc(O)c(C(=O)N2CCCN(CC(=O)N(CC)CC)CC2)c1`
Result string: 6.62

Query string: Please give the measured cytotoxicity at 10 µM for this compound: `Cc1[nH]c2ccc(C(=O)N3C[C@@H](O)[C@H](N4CCOCC4)C3)cc2c1C`
Result string: -21.3

Query string: Please give the measured cytotoxicity at 10 µM for this compound: CS(=O)(=O)N1CCOCC2(CN(Cc3ccsc3)CCO2)C1 (configuration not stated)
Result string: -11.7

Query string: Please give the measured cytotoxicity at 10 µM for this compound: `O=C(CCN1CCOCC1)Nc1cccc(CNCc2ccsc2)c1`
Result string: -4.66

====

Test: Toxicity liver stage against HepG2, at 10uM
Assay type: cell-based
Parameters: test concentration 10 uM, cell line HepG2-A16-CD81EGFP
Conditions: human, HepG2-A16-CD81EGFP cells; read-out: INHIBITION
Task for the reader: assign each of the following molecules its reported cytotoxicity at 10 µM.
Reply with just the number (in %).

Query string: Please give the measured cytotoxicity at 10 µM for this molecule: CSC(CNS(C)(=O)=O)c1cccc(Cl)c1 (centres undefined)
Result string: 6.27

Query string: Please give the measured cytotoxicity at 10 µM for this molecule: `Cc1ncsc1C(=O)NC1CCN(CC(=O)N(C)c2ccccc2)CC1`
Result string: 1.26

Query string: Please give the measured cytotoxicity at 10 µM for this molecule: `CCS(=O)(=O)N1CCCn2nnc(Cn3cccc3)c2C1`
Result string: 9.77

Query string: Please give the measured cytotoxicity at 10 µM for this molecule: CC(C)C(CNC(=O)NCc1cc[nH]n1)N1CCOCC1 (centres undefined)
Result string: -7.48

Query string: Please give the measured cytotoxicity at 10 µM for this molecule: O=C(CNC1CCc2ncnn2C1)N(Cc1cccs1)C1CC1 (centres undefined)
Result string: -3.09

Query string: Please give the measured cytotoxicity at 10 µM for this molecule: CCCc1n[nH]c(C2CN(CC(=O)N(C)Cc3ccco3)CCO2)n1 (centres undefined)
Result string: -4.84

Query string: Please give the measured cytotoxicity at 10 µM for this molecule: `Cc1ccc(N2Cc3cnn(Cc4ccc(F)cc4)c3C2)nn1`
Result string: 0.209

Query string: Please give the measured cytotoxicity at 10 µM for this molecule: `Cn1c(N2CCOCC2)nc2cc(C(=O)N[C@@H]3CC[C@@H](N)C3)ccc21`
Result string: -1.07

Query string: Please give the measured cytotoxicity at 10 µM for this molecule: Fc1cccnc1CN1CCCCC1c1ccn2ccnc2n1 (centres undefined)
Result string: 0.505

Query string: Please give the measured cytotoxicity at 10 µM for this molecule: `COCCNS(=O)(=O)c1cccc(CSC)c1`
Result string: 11.9

Query string: Please give the measured cytotoxicity at 10 µM for this molecule: `CCNC(=O)N1C[C@@H]2OCC(=O)N(Cc3cccnc3)[C@@H]2C1`
Result string: 7.95

Query string: Please give the measured cytotoxicity at 10 µM for this molecule: `Nc1nc2c(c(NCc3ccncc3)n1)CCCC2`
Result string: 4.56

Query string: Please give the measured cytotoxicity at 10 µM for this molecule: `COc1cccc(CNc2cc(C)nc(-c3ccncc3)n2)c1O`
Result string: 59.1

Query string: Please give the measured cytotoxicity at 10 µM for this molecule: Cc1ccn2ncc(C(=O)N3CCCC(n4ccnc4C)C3)c2n1 (centres undefined)
Result string: -13.6
